Origin of values: patent US20100056516A1

In this section we review reported pIC50 values for a set of compounds.
Biological target: HIV integrase (Human immunodeficiency virus type 1 group M subtype B)
Assay: integrase strand transfer assay (STA)
Format: biochemical
Details: IC50 in the STA assay, integrase strand transfer
pIC50: −log10 of the molar value.

Recall and state the measured pIC50 for `O=c1cc(Nc2ccccc2N2CCOCC2)c2cccnc2n1O` .
> 4.30

For the compound `CCOC(=O)c1c(O)c2c(-c3ccccc3)ccnc2n(O)c1=O` , give its measured pIC50 value.
> 4.30

Give me measured pIC50, please, for this compound: `CNC(=O)c1c(O)c2cccnc2n(O)c1=O`
> 4.30

Using known records, supply pIC50 for `O=c1cc(NCc2cccc(N3CCOCC3)n2)c2cccnc2n1O`
> 4.30

Return pIC50 (reported value) for this compound: `NCc1ccc(-c2ccc(Cc3cc(=O)n(O)c4ncccc34)cc2)cc1`
< 4.30
